Give viability, T/C for every item shown.
System: 439559-082-T-J2-PDC spheroid viability
assayMethodText: Anticancer human tumor 439559-082-T-J2-PDC patient-derived colon adenocarcinoma cell line growth inhibition [POLQ]
condition: second compound 0.1 µM; first compound 0.0316 µM; stronger effect = lower value; spheroids with HUVEC and MSC
Quick note: unit goes after the number.

{"columns": ["compound", "viability, T/C"],
 "data": [
  ["CNCc1ccc(-c2[nH]c3cc(F)cc4c3c2CCNC4=O)cc1 + Nc1ccc(C#CCN(C(=O)Cc2ncc(C(F)(F)F)cc2C(F)(F)F)c2ccc(F)cc2)nn1", "100%"]
]}

Respectfully, I request viability, T/C for each entry included below.
1. CCc1cc2c(N3CCc4c(cc(Cn5ccnc5)cc4-c4cn(C)nc4C(F)(F)F)C3=O)cc(C)nc2c(OC)n1 + Nc1ccc(C#CCN(C(=O)Cc2ncc(C(F)(F)F)cc2C(F)(F)F)c2ccc(F)cc2)nn1
2. CC1COCCN1c1cc(-c2ccnn2C)c2ccnc(-c3ccn[nH]3)c2n1 (stereo not given) + Nc1ccc(C#CCN(C(=O)Cc2ncc(C(F)(F)F)cc2C(F)(F)F)c2ccc(F)cc2)nn1
3. CC1COCCN1c1cc(C2(S(C)(=N)=O)CC2)nc(-c2ccnc3[nH]ccc23)n1 (stereo not given) + COC1C(OC(N)=O)C(O)C(Oc2ccc3c(O)c(NC(=O)c4ccc(O)c(CC=C(C)C)c4)c(=O)oc3c2C)OC1(C)C
4. C#Cc1c(F)ccc2cc(O)cc(-c3ncc4c(N5CC6CCC(C5)N6)nc(OCC56CCCN5CC(F)C6)nc4c3F)c12 (stereo not given) + COC1C(OC(N)=O)C(O)C(Oc2ccc3c(O)c(NC(=O)c4ccc(O)c(CC=C(C)C)c4)c(=O)oc3c2C)OC1(C)C

1: 108%; 2: 105%; 3: 100%; 4: 96%

---

Tested on: 439559-082-T-J2-PDC spheroid viability
assayMethodText: Anticancer human tumor 439559-082-T-J2-PDC cell line growth inhibition [POLQ];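 note: spheroids exposed to compounds for seven days before readout; 100% = DMSO vehicle control viability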
condition: second compound 0.1 µM; first compound 3.16 µM; stronger effect = lower value; spheroids with HUVEC and MSC
attributeMeasured: viability, T/C (%)
One number for each entry, in %.

Some solved entries appear below for comparison.
{"columns": ["compound", "systemTested", "viability, T/C / %"],
 "data": [
  ["O=C(Nc1ccc(O)c(NS(=O)(=O)c2ccc(F)cc2)c1)c1ccc(-c2ccccc2)cc1 + Cc1cccc(N(C)C(=O)C2C(O)CCN2c2nc(C)cc(C(F)(F)F)c2C#N)c1", "439559-082-T-J2-PDC spheroid viability", 107],
  ["CC1COCCN1c1cc(C2(S(C)(=N)=O)CC2)nc(-c2ccnc3[nH]ccc23)n1 (stereo not drawn) + COC1C(OC(N)=O)C(O)C(Oc2ccc3c(O)c(NC(=O)c4ccc(O)c(CC=C(C)C)c4)c(=O)oc3c2C)OC1(C)C", "439559-082-T-J2-PDC spheroid viability", 89.7]
]}

Quick one: viability, T/C for Nc1ccn(C2OC(CO)C(O)C2(F)F)c(=O)n1 (stereo not drawn) + Nc1ccc(C#CCN(C(=O)Cc2ncc(C(F)(F)F)cc2C(F)(F)F)c2ccc(F)cc2)nn1 ?
33.9

---

Give viability, T/C for every item shown.
System: 439559-082-T-J2-PDC spheroid viability
assayMethodText: Anticancer human tumor 439559-082-T-J2-PDC cell line growth inhibition [POLQ];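 note: spheroids exposed to compounds for seven days before readout; 100% = DMSO vehicle control viability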
condition: second compound 0.0316 µM; first compound 1 µM; stronger effect = lower value; spheroids with HUVEC and MSC
Numbers only, in %.

Some solved entries appear below for comparison.
{"columns": ["compound", "systemTested", "viability, T/C, %"],
 "data": [
  ["C=CCn1c(=O)c2cnc(Nc3ccc(N4CCN(C)CC4)cc3)nc2n1-c1cccc(C(C)(C)O)n1 + Nc1ccc(C#CCN(C(=O)Cc2ncc(C(F)(F)F)cc2C(F)(F)F)c2ccc(F)cc2)nn1", "439559-082-T-J2-PDC spheroid viability", 84.7],
  ["CNCc1ccc(-c2[nH]c3cc(F)cc4c3c2CCNC4=O)cc1 + Cc1cccc(N(C)C(=O)C2C(O)CCN2c2nc(C)cc(C(F)(F)F)c2C#N)c1", "439559-082-T-J2-PDC spheroid viability", 96.5],
  ["COc1cccc2c1C(=O)c1c(O)c3c(c(O)c1C2=O)CC(O)(C(=O)CO)CC3OC1CC(N)C(O)C(C)O1 (centres undefined) + Nc1ccc(C#CCN(C(=O)Cc2ncc(C(F)(F)F)cc2C(F)(F)F)c2ccc(F)cc2)nn1", "439559-082-T-J2-PDC spheroid viability", 67.8],
  ["COc1ccc([C@@H](O)c2cc(-c3ncnc4cc(N5CCOCC5)ccc34)c(F)cc2Cl)nn1 + COC1C(OC(N)=O)C(O)C(Oc2ccc3c(O)c(NC(=O)c4ccc(O)c(CC=C(C)C)c4)c(=O)oc3c2C)OC1(C)C", "439559-082-T-J2-PDC spheroid viability", 95.1],
  ["CC1COCCN1c1cc(C2(S(C)(=N)=O)CC2)nc(-c2ccnc3[nH]ccc23)n1 (centres undefined) + COC1C(OC(N)=O)C(O)C(Oc2ccc3c(O)c(NC(=O)c4ccc(O)c(CC=C(C)C)c4)c(=O)oc3c2C)OC1(C)C", "439559-082-T-J2-PDC spheroid viability", 101]
]}

Respectfully, I request viability, T/C for each entry included below.
1. C#Cc1c(F)ccc2cc(O)cc(-c3ncc4c(N5CC6CCC(C5)N6)nc(OCC56CCCN5CC(F)C6)nc4c3F)c12 (centres undefined) + COC1C(OC(N)=O)C(O)C(Oc2ccc3c(O)c(NC(=O)c4ccc(O)c(CC=C(C)C)c4)c(=O)oc3c2C)OC1(C)C
2. CCc1cc2c(N3CCc4c(cc(Cn5ccnc5)cc4-c4cn(C)nc4C(F)(F)F)C3=O)cc(C)nc2c(OC)n1 + COC1C(OC(N)=O)C(O)C(Oc2ccc3c(O)c(NC(=O)c4ccc(O)c(CC=C(C)C)c4)c(=O)oc3c2C)OC1(C)C
3. CC(C)n1c(=O)n(C)c2cnc3cc(F)c(-c4ccc(OCCCN5CCCCC5)nc4)cc3c21 + Cc1cccc(N(C)C(=O)C2C(O)CCN2c2nc(C)cc(C(F)(F)F)c2C#N)c1
4. CCc1c2c(nc3ccc(O)cc13)-c1cc3c(c(=O)n1C2)COC(=O)[C@]3(O)CC + COC1C(OC(N)=O)C(O)C(Oc2ccc3c(O)c(NC(=O)c4ccc(O)c(CC=C(C)C)c4)c(=O)oc3c2C)OC1(C)C
5. COc1cccc2c1C(=O)c1c(O)c3c(c(O)c1C2=O)CC(O)(C(=O)CO)CC3OC1CC(N)C(O)C(C)O1 (centres undefined) + Cc1cccc(N(C)C(=O)C2C(O)CCN2c2nc(C)cc(C(F)(F)F)c2C#N)c1
6. O=C(Nc1ccc(O)c(NS(=O)(=O)c2ccc(F)cc2)c1)c1ccc(-c2ccccc2)cc1 + Nc1ccc(C#CCN(C(=O)Cc2ncc(C(F)(F)F)cc2C(F)(F)F)c2ccc(F)cc2)nn1
7. CC(C)n1c(=O)n(C)c2cnc3cc(F)c(-c4ccc(OCCCN5CCCCC5)nc4)cc3c21 + COC1C(OC(N)=O)C(O)C(Oc2ccc3c(O)c(NC(=O)c4ccc(O)c(CC=C(C)C)c4)c(=O)oc3c2C)OC1(C)C

1. 69.2
2. 102
3. 116
4. 39
5. 70.5
6. 93.3
7. 116

Respectfully, I request viability, T/C for each entry included below.
1. C#Cc1c(F)ccc2cc(O)cc(-c3ncc4c(N5CC6CCC(C5)N6)nc(OCC56CCCN5CC(F)C6)nc4c3F)c12 (centres undefined) + Nc1ccc(C#CCN(C(=O)Cc2ncc(C(F)(F)F)cc2C(F)(F)F)c2ccc(F)cc2)nn1
2. CCCS(=O)(=O)Nc1ccc(F)c(C(=O)c2c[nH]c3ncc(-c4ccc(Cl)cc4)cc23)c1F + Cc1cccc(N(C)C(=O)C2C(O)CCN2c2nc(C)cc(C(F)(F)F)c2C#N)c1
3. C=CCn1c(=O)c2cnc(Nc3ccc(N4CCN(C)CC4)cc3)nc2n1-c1cccc(C(C)(C)O)n1 + COC1C(OC(N)=O)C(O)C(Oc2ccc3c(O)c(NC(=O)c4ccc(O)c(CC=C(C)C)c4)c(=O)oc3c2C)OC1(C)C
4. COc1cccc(OCCCN)c1-c1cc(Nc2cnc(C#N)cn2)n[nH]1 + COC1C(OC(N)=O)C(O)C(Oc2ccc3c(O)c(NC(=O)c4ccc(O)c(CC=C(C)C)c4)c(=O)oc3c2C)OC1(C)C
5. CC1COCCN1c1cc(C2(S(C)(=N)=O)CC2)nc(-c2ccnc3[nH]ccc23)n1 (centres undefined) + Nc1ccc(C#CCN(C(=O)Cc2ncc(C(F)(F)F)cc2C(F)(F)F)c2ccc(F)cc2)nn1
6. Nc1ccn(C2OC(CO)C(O)C2(F)F)c(=O)n1 (centres undefined) + Nc1ccc(C#CCN(C(=O)Cc2ncc(C(F)(F)F)cc2C(F)(F)F)c2ccc(F)cc2)nn1
7. COc1ccc([C@@H](O)c2cc(-c3ncnc4cc(N5CCOCC5)ccc34)c(F)cc2Cl)nn1 + Nc1ccc(C#CCN(C(=O)Cc2ncc(C(F)(F)F)cc2C(F)(F)F)c2ccc(F)cc2)nn1

[73.7, 97, 80.7, 17.4, 95.8, 35.6, 89.4]
